Measured values drawn from patent US11497212B2 for this set.

tested on: Oryza sativa; assay: Crop compatibility post-emergence (greenhouse pot trial); format: in vivo; settings: application rate 20 g/ha
parameter: Oryza sativa (Efficacy in %)

**Query** Recorded Oryza sativa (Efficacy in %) for CC(CC(=O)OCC1CCCO1)Sc1cc(-n2c(=O)cc(C(F)(F)F)n(C)c2=O)c(F)cc1Cl (centres unmarked) , please?
**Result** 10

a: CC(Sc1cc(-n2c(=O)cc(C(F)(F)F)n(C)c2=O)c(F)cc1Cl)C(=O)OCC1CCCOC1 (centres unmarked)
b: CC(Sc1cc(-n2c(=O)cc(C(F)(F)F)n(C)c2=O)c(F)cc1Cl)C(=O)NC1(C#N)CCSC1 (centres unmarked)
c: CCC(Sc1cc(-n2c(=O)c(C)c(C(F)(F)F)n(C)c2=O)c(F)cc1Cl)C(=O)NCC1CCCO1 (centres unmarked)
**Query** Rank descending by Oryza sativa (Efficacy in %). Return the labels ranked in the requested order, please.
**Result** c, b, a
(c: 20%, b: 10%, a: 0%)

---

Below is a list of entries, each paired with its recorded Hordeum murinum (Efficacy in %) value.
tested on: Hordeum murinum; assay: Herbicidal action pre-emergence (greenhouse pot trial); type: in vivo; details: application rate 320 g/ha
API: value field is a number in %; no unit string.

Check out these entries, answers already filled in.
**Query** Hello, I am looking for reported Hordeum murinum (Efficacy in %) with Hordeum murinum for CC(Sc1cc(-n2c(=O)cc(C(F)(F)F)n(C)c2=O)c(F)cc1Cl)C(=O)NCC1CCCO1 (centres unmarked) [I.1-271] . Could you help?
**Result** 100

**Query** Hello, I am looking for reported Hordeum murinum (Efficacy in %) with Hordeum murinum for CC(Sc1cc(-n2c(=O)cc(C(F)(F)F)n(C)c2=O)c(F)cc1Cl)C(=O)NCC1CCCO1 (centres unmarked) [I.1-221] . Could you help?
**Result** 100

**Query** Hello, I am looking for reported Hordeum murinum (Efficacy in %) with Hordeum murinum for CC(Sc1cc(-n2c(=O)cc(C(F)(F)F)n(C)c2=O)c(F)cc1Cl)C(=O)OCC1CCCO1 (centres unmarked) . Could you help?
**Result** 90

**Query** Hello, I am looking for reported Hordeum murinum (Efficacy in %) with Hordeum murinum for COCCOC(=O)C(C)Sc1cc(-n2c(=O)cc(C(F)(F)F)n(C)c2=O)c(F)cc1Cl (centres unmarked) . Could you help?
**Result** 90

**Query** Hello, I am looking for reported Hordeum murinum (Efficacy in %) with Hordeum murinum for COCCCOC(=O)C(C)Sc1cc(-n2c(=O)cc(C(F)(F)F)n(C)c2=O)c(F)cc1Cl (centres unmarked) . Could you help?
**Result** 100

New cases:
**Query** Hello, I am looking for reported Hordeum murinum (Efficacy in %) with Hordeum murinum for CC(Sc1cc(-n2c(=O)cc(C(F)(F)F)n(C)c2=O)c(F)cc1Cl)C(=O)NCC1CS(=O)(=O)CCO1 (centres unmarked) . Could you help?
**Result** 100

**Query** Hello, I am looking for reported Hordeum murinum (Efficacy in %) with Hordeum murinum for COCCOC(=O)CSc1cc(-n2c(=O)cc(C(F)(F)F)n(C)c2=O)c(F)cc1Cl . Could you help?
**Result** 90

**Query** Hello, I am looking for reported Hordeum murinum (Efficacy in %) with Hordeum murinum for CC(Sc1cc(-n2c(=O)cc(C(F)(F)F)n(C)c2=O)c(F)cc1Cl)C(=O)OCC1CCOC1 (centres unmarked) . Could you help?
**Result** 90

---

test system: Zea mays; assay: Crop compatibility pre-emergence (greenhouse pot trial); assay type: in vivo; conditions: application rate 80 g/ha, effect vs untreated controls
parameter: Zea mays (Efficacy in %)

Check out these entries, answers already filled in.
**Query** Hello, I am looking for reported Zea mays (Efficacy in %) with Zea mays for CC(Sc1cc(-n2c(=O)cc(C(F)(F)F)n(C)c2=O)c(F)cc1Cl)C(=O)OCC1CCOC1 (stereo not shown) [I.1-72] . Could you help?
**Result** 20

**Query** Hello, I am looking for reported Zea mays (Efficacy in %) with Zea mays for CC(Sc1cc(-n2c(=O)cc(C(F)(F)F)n(C)c2=O)c(F)cc1Cl)C(=O)OC1CCCOC1 (stereo not shown) [I.1-126] . Could you help?
**Result** 0

**Query** Hello, I am looking for reported Zea mays (Efficacy in %) with Zea mays for CCOCCCOC(=O)C(C)Sc1cc(-n2c(=O)cc(C(F)(F)F)n(C)c2=O)c(F)cc1Cl (stereo not shown) [I.1-27] . Could you help?
**Result** 0

**Query** Hello, I am looking for reported Zea mays (Efficacy in %) with Zea mays for CC(Sc1cc(-n2c(=O)cc(C(F)(F)F)n(C)c2=O)c(F)cc1Cl)C(=O)OCC1CCCS1 (stereo not shown) [I.1-81] . Could you help?
**Result** 0

**Query** Hello, I am looking for reported Zea mays (Efficacy in %) with Zea mays for CC(Sc1cc(-n2c(=O)cc(C(F)(F)F)n(C)c2=O)c(F)cc1Cl)C(=O)OC1CCSCC1 (stereo not shown) [I.1-132] . Could you help?
**Result** 0

I: COCCOCCOC(=O)C(C)Sc1cc(-n2c(=O)cc(C(F)(F)F)n(C)c2=O)c(F)cc1Cl (stereo not shown) [I.1-23]
II: CC1CC(COC(=O)C(C)Sc2cc(-n3c(=O)cc(C(F)(F)F)n(C)c3=O)c(F)cc2Cl)CO1 (stereo not shown) [I.1-73]
**Query** Determine, for I and II , which has the greater value of Zea mays (Efficacy in %). Use the label to indicate which entry you chose.
**Result** I
(I: 10%, II: 0%)

---

tested on: Glycine max; assay: Crop compatibility pre-emergence (greenhouse pot trial); format: in vivo; settings: application rate 80 g/ha, effect vs untreated controls
parameter: Glycine max (Efficacy in %)

Check out these entries, answers already filled in.
**Query** Hello, I am looking for reported Glycine max (Efficacy in %) with Glycine max for CC(Sc1cc(-n2c(=O)cc(C(F)(F)F)n(C)c2=O)c(F)cc1Cl)C(=O)OCC1CCCS1 (centres unmarked) [I.1-81] . Could you help?
**Result** 0

**Query** Hello, I am looking for reported Glycine max (Efficacy in %) with Glycine max for CC(Sc1cc(-n2c(=O)cc(C(F)(F)F)n(C)c2=O)c(F)cc1Cl)C(=O)NCC1CS(=O)(=O)CCO1 (centres unmarked) [I.1-333] . Could you help?
**Result** 0

**Query** Hello, I am looking for reported Glycine max (Efficacy in %) with Glycine max for CC(Sc1cc(-n2c(=O)cc(C(F)(F)F)n(C)c2=O)c(F)cc1Cl)C(=O)NC1(C#N)CCSC1 (centres unmarked) [I.1-340] . Could you help?
**Result** 20

1: CC(Sc1cc(-n2c(=O)cc(C(F)(F)F)n(C)c2=O)c(F)cc1Cl)C(=O)OCC1CCCO1 (centres unmarked) [I.1-71]
2: CC(Sc1cc(-n2c(=O)cc(C(F)(F)F)n(C)c2=O)c(F)cc1Cl)C(=O)OCC1CCOC1 (centres unmarked) [I.1-72]
**Query** Between 1 and 2 , which one shows the smaller Glycine max (Efficacy in %) number? Use the label to indicate which entry you chose.
**Result** 1
(1: 0%, 2: 20%)

---

Tested on: Stellaria media
Experiment: Herbicidal action post-emergence (greenhouse pot trial)
Type: in vivo
Conditions: application rate 20 g/ha, scored visually after about 3 weeks vs untreated controls
Method: Seeds of mono- and dicotyledonous weed plants and crop plants are laid out in sandy loam soil in plastic or wood-fiber pots, covered with earth and grown under controlled growth conditions in a greenhouse. 2 to 3 weeks after sowing, the trial plants are treated at the one-leaf stage. […] After the trial plants had stood for about 3 weeks in the greenhouse, under optimal growth conditions, the effect of the preparations was scored visually by comparison with untreated controls. […]
Below is a list of entries, each paired with its recorded Stellaria media (Efficacy in %) value.
API: value field is a number in %; no unit string.

**Query** Recorded Stellaria media (Efficacy in %) for CCC(Sc1cc(-n2c(=O)cc(C(F)(F)F)n(C)c2=O)c(F)cc1Cl)C(=O)OCC1CCCOC1 (stereo not shown) , please?
**Result** 100

**Query** Recorded Stellaria media (Efficacy in %) for CC(C)C(Sc1cc(-n2c(=O)cc(C(F)(F)F)n(C)c2=O)c(F)cc1Cl)C(=O)OCC1CCCO1 (stereo not shown) , please?
**Result** 100

**Query** Recorded Stellaria media (Efficacy in %) for CC(C)C(Sc1cc(-n2c(=O)cc(C(F)(F)F)n(C)c2=O)c(F)cc1Cl)C(=O)NCC1CCCO1 (stereo not shown) , please?
**Result** 80

**Query** Recorded Stellaria media (Efficacy in %) for Cc1c(C(F)(F)F)n(C)c(=O)n(-c2cc(SCC(C)(C)C(=O)NCC3CCCO3)c(Cl)cc2F)c1=O (stereo not shown) , please?
**Result** 80

**Query** Recorded Stellaria media (Efficacy in %) for CCC(C)C(Sc1cc(-n2c(=O)cc(C(F)(F)F)n(C)c2=O)c(F)cc1Cl)C(=O)NCC1CCCO1 (stereo not shown) , please?
**Result** 90

New cases:
**Query** Recorded Stellaria media (Efficacy in %) for CC(C)C(Sc1cc(-n2c(=O)cc(C(F)(F)F)n(C)c2=O)c(F)cc1Cl)C(=O)OCC1CCOC1 (stereo not shown) , please?
**Result** 90

**Query** Recorded Stellaria media (Efficacy in %) for COC(C)COC(=O)C(C)Sc1cc(-n2c(=O)cc(C(F)(F)F)n(C)c2=O)c(F)cc1Cl (stereo not shown) , please?
**Result** 80

**Query** Recorded Stellaria media (Efficacy in %) for CCC(Sc1cc(-n2c(=O)cc(C(F)(F)F)n(C)c2=O)c(F)cc1Cl)C(=O)OCC1CCCO1 (stereo not shown) , please?
**Result** 100

**Query** Recorded Stellaria media (Efficacy in %) for CSCCNC(=O)C(C)Sc1cc(-n2c(=O)cc(C(F)(F)F)n(C)c2=O)c(F)cc1Cl (stereo not shown) , please?
**Result** 100

**Query** Recorded Stellaria media (Efficacy in %) for CC(CC(=O)NCC1CCCO1)Sc1cc(-n2c(=O)cc(C(F)(F)F)n(C)c2=O)c(F)cc1Cl (stereo not shown) , please?
**Result** 90

**Query** Recorded Stellaria media (Efficacy in %) for CC(Sc1cc(-n2c(=O)cc(C(F)(F)F)n(C)c2=O)c(F)cc1Cl)C(=O)NCC1COCCO1 (stereo not shown) , please?
**Result** 80

**Query** Recorded Stellaria media (Efficacy in %) for Cc1c(C(F)(F)F)n(C)c(=O)n(-c2cc(SCC(C)(C)C(=O)NCC3CCCCO3)c(Cl)cc2F)c1=O (stereo not shown) , please?
**Result** 80

**Query** Recorded Stellaria media (Efficacy in %) for Cn1c(C(F)(F)F)cc(=O)n(-c2cc(SCC(C)(C)C(=O)OC3CCOC3)c(Cl)cc2F)c1=O (stereo not shown) , please?
**Result** 80

**Query** Recorded Stellaria media (Efficacy in %) for CCC(Sc1cc(-n2c(=O)c(C)c(C(F)(F)F)n(C)c2=O)c(F)cc1Cl)C(=O)OCC1CCCCO1 (stereo not shown) , please?
**Result** 100

**Query** Recorded Stellaria media (Efficacy in %) for CC(Sc1cc(-n2c(=O)cc(C(F)(F)F)n(C)c2=O)c(F)cc1Cl)C(=O)NCCCOCc1ccccc1 (stereo not shown) , please?
**Result** 90

**Query** Recorded Stellaria media (Efficacy in %) for COCCNC(=O)C(C)Sc1cc(-n2c(=O)cc(C(F)(F)F)n(C)c2=O)c(F)cc1Cl (stereo not shown) , please?
**Result** 100
